Catalogue of substances with associated cell proliferation as a percent of control cell proliferation
- Tested on: PAM 212 murine epidermal keratinocyte
- Measurement Notes: Cell proliferation assay, PAM 212 murine epidermal keratinocytes
- Type: cell-based
- Applied Conditions: 46.4 μg/mL peptide; control = cells treated with PBS only
Reply numerically in %, unit not repeated.

Use these answered entries as a reference point.
KIEKMGRNIRN (listed as Hyalophora cecropia) [HB-1057, fragment of HB-107] = 167
MPKEKVFLKIEKMGRNIRN (listed as Hyalophora cecropia) [HB-107, parent peptide, a fragment of cecropin B, an antimicrobial protein present in a species of moth, reference compound] = 126
MGRNIRN (listed as Hyalophora cecropia) [HB-1061, fragment of HB-107] = 241
VFLKIEK (listed as Hyalophora cecropia) [HB-1074, fragment of HB-107] = 149
VFLKIEKMG (listed as Hyalophora cecropia) [HB-1071, fragment of HB-107] = 155
KIEKMG (listed as Hyalophora cecropia) [HB-1072, fragment of HB-107] = 237

Could you now look at the following substance, please?
Tell me reported cell proliferation as a percent of control cell proliferation for LKIEKMGRNIRN (listed as Hyalophora cecropia) [HB-1056, fragment of HB-107] , tested with PAM 212 murine epidermal keratinocyte.
97
